target: T1, recombinant human soluble gpNMB (recombinant human gpNMB-FLAG-His) (human, UniProt Q14956 23-498)
T1 sequence: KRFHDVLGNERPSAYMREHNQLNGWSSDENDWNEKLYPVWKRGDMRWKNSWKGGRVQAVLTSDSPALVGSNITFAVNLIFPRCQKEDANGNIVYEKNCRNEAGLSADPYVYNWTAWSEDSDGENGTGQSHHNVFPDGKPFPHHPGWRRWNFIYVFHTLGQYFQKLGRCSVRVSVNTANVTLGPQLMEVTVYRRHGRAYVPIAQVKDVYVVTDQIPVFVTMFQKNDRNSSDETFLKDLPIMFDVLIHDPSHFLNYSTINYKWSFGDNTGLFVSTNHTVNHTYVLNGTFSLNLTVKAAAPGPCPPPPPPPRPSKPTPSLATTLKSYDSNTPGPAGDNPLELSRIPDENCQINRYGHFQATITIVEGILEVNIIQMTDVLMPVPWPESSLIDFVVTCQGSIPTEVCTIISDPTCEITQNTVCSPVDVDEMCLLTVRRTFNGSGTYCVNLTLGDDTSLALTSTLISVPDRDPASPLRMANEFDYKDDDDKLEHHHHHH
measurement_protocol: antigen ELISA
readout_label: EC50 (nM)

>>> numeric_value("hGPN18-2_H2L3 VL N35A (antibody, V domains shown) VH: QVQLVQSGPGLVQPTQTLTLTCSFSGFSLSTSVMGVGWIRQPSGKGLEWLADIWWDDDKDYNPSLKSRLTISKDTSKNQVVLTMTNMDTVDTATYYCARTYYSNYEYYGMDYWGQGTLVTVSS VL: DIVMTQSPDSLAVSLGERATINCRSSQTIILSNGATYLEWYQQKPGQPPKLLIYKVSNRFSGVPDRFSGSGSGTDFTLTISSLQAEDVAVYYCFQGSHVPFTFGSGTKLEIKR")
3.08
>>> numeric_value("hGPN18-2_H2L3 VL S61A (antibody, V domains shown) VH: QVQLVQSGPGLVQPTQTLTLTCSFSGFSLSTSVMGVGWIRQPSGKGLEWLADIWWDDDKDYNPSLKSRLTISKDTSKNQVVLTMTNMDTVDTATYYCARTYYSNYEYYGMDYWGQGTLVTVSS VL: DIVMTQSPDSLAVSLGERATINCRSSQTIILSNGNTYLEWYQQKPGQPPKLLIYKVSNRFAGVPDRFSGSGSGTDFTLTISSLQAEDVAVYYCFQGSHVPFTFGSGTKLEIKR")
3.63
>>> numeric_value("hGPN18-2_H2L3 VL F101A (antibody, V domains shown) VH: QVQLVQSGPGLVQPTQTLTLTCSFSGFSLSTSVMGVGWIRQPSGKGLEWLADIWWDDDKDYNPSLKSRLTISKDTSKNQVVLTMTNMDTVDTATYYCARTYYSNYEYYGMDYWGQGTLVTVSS VL: DIVMTQSPDSLAVSLGERATINCRSSQTIILSNGNTYLEWYQQKPGQPPKLLIYKVSNRFSGVPDRFSGSGSGTDFTLTISSLQAEDVAVYYCFQGSHVPATFGSGTKLEIKR")
7.66
>>> numeric_value("hGPN18-2_H2L3 VL F60A (antibody, V domains shown) VH: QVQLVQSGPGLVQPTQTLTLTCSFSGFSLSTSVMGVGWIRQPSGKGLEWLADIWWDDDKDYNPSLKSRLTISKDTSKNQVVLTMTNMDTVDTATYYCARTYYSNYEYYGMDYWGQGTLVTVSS VL: DIVMTQSPDSLAVSLGERATINCRSSQTIILSNGNTYLEWYQQKPGQPPKLLIYKVSNRASGVPDRFSGSGSGTDFTLTISSLQAEDVAVYYCFQGSHVPFTFGSGTKLEIKR")
2.28
